Data origin: patent US20220324835A1

System: primary human total T-cells
Assay: T-cell activation assessed by CD69 expression
Format: cell-based
Settings: CD3 alone stimulation, CD4 T-cells, 1.11 μM, read-out: % CD69+ (CD4)
Measured Parameter: fold induction at 1.11 µM

Smiles Str: Cc1cc(C(=O)Nc2cccc(C3(Cc4nncn4C)COC3)c2)nc(C2CC2)n1
Measured Parameter: fold induction at 1.11 µM
Endpoint Result: 1.4 to 1.6

Query :: Form entry - test system: primary human total T-cells; read-out: fold induction at 1.11 µM; molecule: `C[C@@H](c1cc2c(c(C(F)(F)F)c1)CN(c1cccc(C3(Cc4nncn4C)COC3)c1)C2=O)N1CC[C@H](F)C1`
Result :: > 1.6

Query :: # value lookup — system primary human total T-cells, readout fold induction at 1.11 µM, item `C[C@H](Cc1nncn1C)c1cccc(NC(=O)c2nc(C(F)(F)F)c[nH]2)c1`
Result :: 1.2 to 1.4
